Subject of test: T1, BCMA on BCMA-positive NCI-H929, ARP-1 and U266B1 cells (human, UniProt Q02223 1-184)
T1 construct: they are human cell lines; also called B-cell maturation antigen; TNFRSF17
T1 sequence: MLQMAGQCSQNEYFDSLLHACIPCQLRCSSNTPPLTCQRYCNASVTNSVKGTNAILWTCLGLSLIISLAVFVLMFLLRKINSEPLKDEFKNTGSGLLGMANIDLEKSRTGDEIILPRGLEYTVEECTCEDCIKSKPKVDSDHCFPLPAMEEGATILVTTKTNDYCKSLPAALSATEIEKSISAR
Assay summary: FACS, NCI-H929 cells
We begin with a simple list: items and their reported Bmax (MFI).
Endpoint: Bmax (MFI)

{"columns": ["Binder", "Endpoint", "Recorded value"],
 "data": [
  ["11D6 (antibody, V domains shown, chicken HybriFree-derived antibody; also called Antibody 32) VH: AVTLDESGGGLQTPGGTLSLVCKASGFTFSSFNMFWVRQAPGEGLEWVAYIRNDGRSTSYGPAVKGRATISRDNGQSTVRLQLNNLRAEDTGTYFCAKTTCVGSGGCIDTWGHGTEVIVSS VL: ALTQPSSVSANPGETVEITCSGGNSDYGWFQQKSPGSAPVTVIYRNNQRPSDIPSRFSGSGSGSTNTLTITGVQAEDEAIYYCGNVDFTDDVFGAGTTLTVL", "Bmax (MFI)", 26400],
  ["10F4 (antibody, V domains shown, chicken HybriFree-derived antibody; also called Antibody 37) VH: AVTLDESGGGLQTPGGALSLVCKASGFTFSGYNMGWVRQAPGKGLEYVAGITYGTGSYTAYGAAVKGRATISRDNGQSTLRLQLNNLRAEDTATYYCARGGGLNSYGCSGANIDAWGHGTEVIVSS VL: ALTQPSSVSANLGGTVKITCSGGGNYFGSYYYGWYQQKAPGSAPVTVIYNNNNRPSDIPSRFSGSTSGSTSTLTISGVRAEDEAVYFCGGFDSSTDAIFGAGTTLTVL", "Bmax (MFI)", 18700],
  ["10H1 (antibody, V domains shown, chicken HybriFree-derived antibody; also called Antibody 45) VH: AVTLDESGGGLQTPGGALSLVCKASGFTFSGYGMGWMRQAPGKGLEYVARINSAGSDTDYGAAVKGRATISRDNGQSTVRLQLNNLRAEDTATYFCTRGGGGASIDGWGHGTEVIVSS VL: ALTQPSSVSANPGETVKITCSGGGNYYGSYYYGWYQQKAPGSAPVTVIYNNNNRPSNIPSRFSGSKSGSTGTLTITGVQAEDEAVYFCGGFDSSSDAIFGAGTTLTVL", "Bmax (MFI)", 22500],
  ["9A8 (antibody, V domains shown, chicken HybriFree-derived antibody; also called Antibody 30) VH: AVTLDESGGGLQTPGGTLSLVCKASGFTFSSFNMFWVRQAPGKGLEWVAYIRNDGNSASYGPAVKGRATISRDNGQSTVRLQLNNLRAEDTATYYCAKTTCIGSGGCIDTWGHGTEVIVSS VL: ALTQPSSVSANPGETVKITCSGGSSDYGWFQQKSPGSAPVTVIYSNNQRPSGIPSRFSGSKSGSTGTLTITGVQAEDEAIYYCANVDYTDDVFGAGTTLTVL", "Bmax (MFI)", 21100]
]}
